Data origin, for the record: the antibiotic and cytotoxicity screens of Wong et al. (2023)

System: HepG2
testName: cytotoxicity call (relative viability < 0.9)
statedConditions: 10 µM
Screen size: about 39,000 compounds; about 3,300 (8.5%) were called active. The list comes from a sample in which actives are over-represented; it also holds close analogues and randomly drawn compounds.
API: response.call in active, inactive

Answered examples (8):
molecule | className
C[C@@H]1CN([C@H](C)CO)C(=O)Cc2cc(NC(=O)C3CCCCC3)ccc2O[C@H]1CN(C)Cc1ccc(Cl)c(Cl)c1 | inactive
C[C@H]1CCCCO[C@@H](CN(C)C(=O)CCC(F)(F)F)[C@@H](C)CN([C@@H](C)CO)C(=O)c2cc(NS(=O)(=O)c3ccccc3)ccc2O1 | inactive
COc1ccc(S(=O)(=O)N(C)C[C@H]2Oc3ccc(NS(=O)(=O)c4ccc(C)cc4)cc3CC(=O)N([C@H](C)CO)C[C@@H]2C)cc1 | inactive
C[C@@H]1CN([C@@H](C)CO)C(=O)c2cc(NC(=O)CCC(F)(F)F)ccc2O[C@@H](C)CCCCO[C@H]1CN(C)S(=O)(=O)c1ccc(Cl)cc1 | inactive
COc1ccc(S(=O)(=O)N(C)C[C@H]2Oc3ccc(NC(=O)NC(C)C)cc3C(=O)N([C@@H](C)CO)C[C@@H]2C)cc1 | inactive
C[C@@H]1CN([C@H](C)CO)C(=O)c2cc(NC(=O)CCC(F)(F)F)ccc2O[C@@H](C)CCCCO[C@H]1CN(C)S(=O)(=O)c1ccc(Cl)cc1 | active
C[C@@H]1CN([C@H](C)CO)C(=O)c2cc(NC(=O)CCC(F)(F)F)ccc2O[C@@H](C)CCCCO[C@@H]1CN(C)S(=O)(=O)c1ccc(Cl)cc1 | inactive
C[C@@H]1CCCCO[C@@H](CN(C)S(=O)(=O)c2ccc(Cl)cc2)[C@H](C)CN([C@H](C)CO)C(=O)c2cc(NC(=O)CCC(F)(F)F)ccc2O1 | active

Enquiry: Kindly provide the recorded test outcome for the following molecule: `Cc1ccc(S(=O)(=O)N(C)C[C@H]2OCCCC[C@H](C)Oc3ccc(NC(=O)CCC(F)(F)F)cc3C(=O)N([C@H](C)CO)C[C@@H]2C)cc1`
Return: inactive

Enquiry: Next record, please: `C[C@@H]1CN([C@H](C)CO)C(=O)c2cc(NC(=O)Cc3ccccc3)ccc2O[C@@H](C)CCCCO[C@@H]1CN(C)Cc1ccc(Cl)c(Cl)c1`
Return: inactive

Enquiry: Next record, please: `C[C@H](CO)N1C[C@H](C)[C@@H](CN(C)S(=O)(=O)c2ccc(Cl)cc2)OCCCC[C@H](C)Oc2ccc(NC(=O)CCC(F)(F)F)cc2C1=O`
Return: inactive

Enquiry: Next record, please: `COC(=O)C1=C2CC[C@H](CO)NC(=O)N[C@H](Cc3ccccc3)C(=O)NCc3cn(nn3)C[C@H](Cc3ccccc3)NC(=O)c3oc(c(C(=O)OC)c3C(=O)OC)CC[C@H](CO)NC(=O)N[C@H](Cc3ccccc3)C(=O)NCc3cn(nn3)C[C@H](Cc3ccccc3)NC(=O)C(=C1C(=O)OC)O2`
Return: inactive

Enquiry: Next record, please: `C[C@H](CO)N1C[C@H](C)[C@H](CN(C)S(=O)(=O)c2cn(C)cn2)Oc2ncc(C#CCN(C)C)cc2C1=O`
Return: inactive

Enquiry: Next record, please: `O=C(C[C@@H]1C[C@H]2c3cc(NS(=O)(=O)c4ccc(F)cc4)ccc3O[C@H]2[C@H](CO)O1)NC1CCCC1`
Return: inactive
